# Assayed Target: SARS-CoV-2 NSP3 macrodomain (Mac1), P43 crystal form (Severe acute respiratory syndrome coronavirus 2)
# Type: binding
Some molecules, each annotated with its measured Occupancy difference (refined_occupancy - 2*(1-BDC)).
Respond with the number and no other words.

Solved entries:
O=C(O)C(c1ccccc1)n1sc2ccccc2c1=O (stereo not drawn) | 0
OC1(CNc2ncnc3[nH]ccc23)CCCC(C(F)(F)F)C1 (stereo not drawn) | 0
Cc1c[nH]c2ncnc(NCC3(O)CCC(O)CC3)c12 (stereo not drawn) | 12
CC1CCCC(O)(CNc2ncnc3[nH]ccc23)C1 (stereo not drawn) | 0

Please report the recorded Occupancy difference (refined_occupancy - 2*(1-BDC)) for CC1CCC(O)(CNc2ncnc3[nH]ccc23)CC1 (stereo not drawn) .
0

Please report the recorded Occupancy difference (refined_occupancy - 2*(1-BDC)) for OC1(CNc2ncnc3[nH]ccc23)CCCOC1 (stereo not drawn) .
0

src = paper doi:10.1101/2024.08.25.609621
